experimental.system: LPA1 (Homo sapiens)
protocol.description: Ca2+ transients in RH7777 cells expressing LPA1 (agonist / inhibition of LPA response)
stated.conditions: LPA1 (nM) EC50, Table 1
recorded.endpoint: EC50

These solved cases illustrate the format of a correct answer.
Looking for the measured EC50 of CCCCCCCC/C=C\CCCCCCCC1OCC(COP([O-])(O)=S)O1.[K+] (stereo not drawn) , can you help? 981 nM

Also, CCCCCCCCc1ccc(CCCCCCC2OCC(COP(=O)(O)O)O2)cc1 (stereo not drawn) please. > 30000 nM

New cases:
Name the recorded EC50 for CCCCCCCCc1ccc(CCCCCCC2OCC(COP([O-])(O)=S)O2)cc1.[K+] (stereo not drawn) . > 30000 nM

----------
experimental.system: LPA3 (Homo sapiens)
protocol.description: Ca2+ transients in RH7777 cells expressing LPA3 (agonist / inhibition of LPA response)
stated.conditions: read-out: LPA3 EC50; Table 3
pEC50: −log10 of the molar value.
recorded.endpoint: pEC50

What value of pEC50 has been reported for the following compound? CCCCCCCCC=CCCCCCCCC1OCC(COP(=O)([O-])O)O1.[K+] (stereo not shown) [Analog 37] < 4.52

Queued: CCCCCCCCC=CCCCCCCCC1OCC(COP(=O)([O-])O)O1.[K+] (mixture of isomers) [Analog 13] < 4.52

***
Query (compound): CCCCCCCCC=CCCCCCCCC1OCC(COP([O-])(O)=S)O1.[K+] (stereo not shown) [Analog 38] ; field requested: pEC50 6.69

Same question, CCCCCCCCCCCCC1OCC(COP(=O)(O)O)O1 (stereo not shown) [Analog 12] this time < 4.52

----------
experimental.system: LPA1 (Homo sapiens, UniProt Q92633)
Sequence (Q92633 whole entry, species assumed): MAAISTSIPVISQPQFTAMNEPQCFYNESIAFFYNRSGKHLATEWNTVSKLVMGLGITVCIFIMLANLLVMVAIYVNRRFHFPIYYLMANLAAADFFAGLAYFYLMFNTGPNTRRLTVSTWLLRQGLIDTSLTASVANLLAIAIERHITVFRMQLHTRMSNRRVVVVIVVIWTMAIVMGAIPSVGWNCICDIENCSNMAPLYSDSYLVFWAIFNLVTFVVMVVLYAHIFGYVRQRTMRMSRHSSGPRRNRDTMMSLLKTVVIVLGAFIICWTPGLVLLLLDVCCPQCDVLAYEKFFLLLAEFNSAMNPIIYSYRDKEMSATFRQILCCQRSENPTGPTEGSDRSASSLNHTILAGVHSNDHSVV
protocol.description: Ca2+ transients in RH7777 cells expressing LPA1 (agonist / inhibition of LPA response)
stated.conditions: LPA1 IC50, Table 3
recorded.endpoint: pIC50
pIC50 is defined as minus the log10 of a concentration measured in mol/L.

Quick one: pIC50 of CCCCCCCCCCCCC1OCC(COP(=O)(O)O)O1 (stereo not shown) ? 5.95

----------
experimental.system: LPA2 (Homo sapiens, UniProt Q9HBW0)
Sequence (Q9HBW0 whole entry, species assumed): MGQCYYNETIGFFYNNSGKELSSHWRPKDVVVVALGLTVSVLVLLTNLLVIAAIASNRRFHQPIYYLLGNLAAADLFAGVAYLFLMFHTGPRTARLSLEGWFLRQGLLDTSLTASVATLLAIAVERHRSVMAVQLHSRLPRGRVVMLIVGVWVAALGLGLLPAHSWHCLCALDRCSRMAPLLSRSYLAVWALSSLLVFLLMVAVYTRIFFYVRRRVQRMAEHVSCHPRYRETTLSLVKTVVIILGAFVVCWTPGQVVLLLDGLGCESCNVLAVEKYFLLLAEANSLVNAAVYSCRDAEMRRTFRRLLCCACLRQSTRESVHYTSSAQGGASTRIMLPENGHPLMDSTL
protocol.description: Ca2+ transients in RH7777 cells expressing LPA2 (agonist / inhibition of LPA response)
recorded.endpoint: LPA2 agonist/antagonist activity in words

Name the recorded LPA2 agonist/antagonist activity in words for CCCCCCCCNC(=O)[C@H](COP(=O)(O)O)NC(=O)CCCCCCC [Cpd 19a] . no effect

Now consider CCCCCCCC(=O)OC[C@H](COP(O)(O)=S)OC(=O)CCCCCCC [Cpd 8b, (2R)-TPA 8:0] and answer again. partial agonist

Please answer likewise for CCCCCCCCNC(=O)[C@@H](COP(=O)(O)O)NC(=O)CCCCCCC [Cpd 19b] no effect

Try the compound CCCCCCCC(=O)OC[C@@H](COP(O)(O)=S)OC(=O)CCCCCCC [Cpd 8a, thiophosphatidic acid 8:0] partial agonist

----------
experimental.system: LPA1 (Homo sapiens)
protocol.description: Ca2+ transients in RH7777 cells expressing LPA1 (agonist / inhibition of LPA response)
stated.conditions: LPA1 IC50, 300 nM LPA
recorded.endpoint: IC50
Answer format reminder: number followed by unit.

Form: Entry = CCCCCCCCCCCCC1OCC(COP(=O)(O)O)O1 (stereo not shown) [Analog 12] | System = LPA1 (Homo sapiens) | IC50 = ____ 2150 nM

----------
experimental.system: LPA2 (Homo sapiens)
protocol.description: Ca2+ transients in RH7777 cells expressing LPA2 (agonist / inhibition of LPA response)
stated.conditions: read-out: LPA2 EC50; Table 3
recorded.endpoint: pEC50
Scale explanation: pEC50 corresponds to minus log10 of a concentration expressed in moles per litre.

Could you share which pEC50 value was measured for CCCCCCCCC=CCCCCCCCC1OCC(COP([O-])(O)=S)O1.[K+] (centres unmarked) ? 5.81

----------
experimental.system: LPA1 (Homo sapiens, UniProt Q92633)
protocol.description: Ca2+ transients in RH7777 cells expressing LPA1 (agonist / inhibition of LPA response)
stated.conditions: LPA1 IC50, text
recorded.endpoint: pIC50
For clarity, pIC50 is expressed as the negative log10 of concentration in mol/L.

Which pIC50 is reported with LPA1 (Homo sapiens, UniProt Q92633) for this entry: CCCCCCCCCCCCC1OCC(COP(=O)(O)O)O1 (stereo not shown) ? 5.96

----------
experimental.system: LPA2 (Homo sapiens, UniProt Q9HBW0)
protocol.description: Ca2+ transients in RH7777 cells expressing LPA2 (agonist / inhibition of LPA response)
stated.conditions: LPA2 EC50, Table 3
recorded.endpoint: EC50

Find the recorded EC50 belonging to CCCCCCCCCCCCC1OCC(COP(=O)(O)O)O1 (stereo not shown) and report it. > 30 µM

----------
experimental.system: LPA2 (Homo sapiens, UniProt Q9HBW0)
protocol.description: Ca2+ transients in RH7777 cells expressing LPA2 (agonist / inhibition of LPA response)
stated.conditions: RH-LPA2 cells IC50, inhibition of 300 nM LPA response
recorded.endpoint: pIC50
Note: pIC50 values are expressed as the negative base-10 logarithm of concentration in M.

May I ask what pIC50 has been recorded for CCCCCCCCCCCCC1OCC(COP(=O)(O)O)O1 (centres unmarked) [Analog 12] ? 6.18

Please examine the following record next.
Data request, read-out pIC50, for CCCCCCCC/C=C\CCCCCCCC1OCC(COP(=O)([O-])O)O1.[K+] (centres unmarked) [Analog 13] 6.11

----------
experimental.system: UniProtKB Q92633
protocol.description: Ca2+ transients in RH7777 cells expressing LPA1 (agonist / inhibition of LPA response)
In this section we review reported IC50 values for a set of compounds.

Form field: reported IC50 of CCCCCCCC/C=C\CCCCCCCC1OCC(COP([O-])(O)=S)O1.[K+] (centres unmarked) [Analog 6] > 30 µM

Next:
Which measured IC50 value corresponds to CCCCCCCCc1ccc(CCCCCCC2OCC(COP(=O)(O)O)O2)cc1 (centres unmarked) [Analog 14] ? 4.66 µM

----------
Entries and their EC50 values follow.
experimental.system: LPA1 (Homo sapiens, UniProt Q92633)
protocol.description: Ca2+ transients in RH7777 cells expressing LPA1 (agonist / inhibition of LPA response)
stated.conditions: read-out: LPA1 EC50; Table 5, PA 8:0 analogs
Provide the reading as a plain figure in nM.

Param item = CCCCCCCCOC[C@H](COP(=O)(O)O)OCCCCCCCC [Cpd 12b, (2R)-APA 8:0] ; retrieve measured EC50. 3260

Pending compound:
Fill blank: measured EC50 of the compound CCCCCCCCOC[C@H](COP(O)(O)=S)OCCCCCCCC [Cpd 13b, 2(R)-ATPA 8:0] is ____. 695

----------
experimental.system: LPA1 (Homo sapiens, UniProt Q92633)
protocol.description: Ca2+ transients in RH7777 cells expressing LPA1 (agonist / inhibition of LPA response)
stated.conditions: RH-LPA1 cells IC50, inhibition of 300 nM LPA response
recorded.endpoint: pIC50
Reminder that pIC50 means the negative base-10 logarithm of the concentration expressed in mol/L.

Find the recorded pIC50 belonging to CCCCCCCCCCCCC1OCC(COP(=O)(O)O)O1 (stereo not shown) and report it. 5.67

----------
log10 of EC50 values for the molecules below.
experimental.system: LPA2 (Homo sapiens)
protocol.description: Ca2+ transients in RH7777 cells expressing LPA2 (agonist / inhibition of LPA response)
stated.conditions: LPA2 (nM) EC50, Table 1
Please note: log10 values; quantity EC50; unit nM.

Illustrative cases are given below, each with its answer.
Provide the documented log10 of EC50 with LPA2 (Homo sapiens) as the system for CCCCCCCC/C=C\CCCCCCCC1OCC(COP([O-])(O)=S)O1.[K+] (stereo not shown) 1.53

Now the same for CCCCCCCC/C=C\CCCCCCCC1OCC(COP(=O)([O-])O)O1.[K+] (stereo not shown) 1.83

Another molecule to look at: CCCCCCCC/C=C\CCCCCCC[C@H]1OC[C@H](COP(O)(O)=S)O1 3.12

Continuing:
Please tell me: log10 of EC50 of CCCCCCCC/C=C\CCCCCCC[C@@H]1OC[C@@H](COP(O)(O)=S)O1 , system LPA2 (Homo sapiens)? 3.23

Let us now turn to CCCCCCCC/C=C\CCCCCCC[C@H]1OC[C@@H](COP(=O)(O)O)O1 3.07

What do we get for CCCCCCCC/C=C\CCCCCCC[C@@H]1OC[C@H](COP(O)(O)=S)O1 ? 3.19

----------
experimental.system: LPA3 (Homo sapiens, UniProt Q9UBY5)
Sequence (Q9UBY5 1-353): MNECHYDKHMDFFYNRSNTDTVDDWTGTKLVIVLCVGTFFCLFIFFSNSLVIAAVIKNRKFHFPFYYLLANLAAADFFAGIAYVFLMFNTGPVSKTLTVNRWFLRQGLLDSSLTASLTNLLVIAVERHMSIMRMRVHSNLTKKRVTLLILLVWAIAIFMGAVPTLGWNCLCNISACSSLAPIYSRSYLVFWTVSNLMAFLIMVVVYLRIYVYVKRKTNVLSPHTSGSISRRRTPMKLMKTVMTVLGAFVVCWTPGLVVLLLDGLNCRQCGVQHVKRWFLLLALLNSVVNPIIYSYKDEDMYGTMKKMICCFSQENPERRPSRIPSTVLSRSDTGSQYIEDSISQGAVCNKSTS
protocol.description: Ca2+ transients in RH7777 cells expressing LPA3 (agonist / inhibition of LPA response)
stated.conditions: read-out: LPA3 (Ki); Table 5
Lab note - cut at 0.1 µM for Ki: Yes if strictly below, No if not.

These recorded examples may help you get a feel for the data.
API: query returns whether the compound falls strictly under 0.1 µM in Ki. Query: CCCCCCCCOC[C@@H](COP(O)(O)=S)OCCCCCCCC [Cpd 13a, dialkyl thiophosphatidic acid 8:0] Yes

Again, but for CCCCCCCCNC(=O)[C@H](COP(=O)(O)O)NC(=O)CCCCCCC [Cpd 19a] No

Let us now turn to CCCCCCCCNC(=O)[C@@H](COP(O)(O)=S)NC(=O)CCCCCCC [Cpd 20b] No

Would you kindly repeat that for CCCCCCCCNC(=O)[C@@H](COP(=O)(O)O)NC(=O)CCCCCCC [Cpd 19b] ? No

Same question, CCCCCCCCNC(=O)[C@H](COP(O)(O)=S)NC(=O)CCCCCCC [Cpd 20a] this time No

Let us examine a further case.
Field: below-cutoff. Rule: recorded Ki strictly less than 0.1 µM. Subject: CCCCCCCCOC[C@@H](COP(=O)(O)O)OCCCCCCCC [Cpd 12a] Yes
